# SYSTEM UNDER TEST: Serine/threonine-protein kinase PknA (Mycobacterium tuberculosis (strain ATCC 25618 / H37Rv), UniProt P9WI83)
# Sequence (P9WI83 whole entry, the tested form may be a part): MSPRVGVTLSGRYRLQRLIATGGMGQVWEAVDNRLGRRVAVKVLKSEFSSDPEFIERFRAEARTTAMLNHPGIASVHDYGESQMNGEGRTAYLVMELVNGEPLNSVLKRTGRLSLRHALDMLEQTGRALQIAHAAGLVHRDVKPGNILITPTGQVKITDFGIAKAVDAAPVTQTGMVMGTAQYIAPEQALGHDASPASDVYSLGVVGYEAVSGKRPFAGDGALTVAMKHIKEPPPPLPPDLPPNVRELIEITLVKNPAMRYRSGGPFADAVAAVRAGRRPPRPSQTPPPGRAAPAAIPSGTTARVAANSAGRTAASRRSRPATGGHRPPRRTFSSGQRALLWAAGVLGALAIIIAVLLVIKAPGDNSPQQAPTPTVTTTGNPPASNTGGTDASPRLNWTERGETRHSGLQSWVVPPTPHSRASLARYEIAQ
# PROCEDURE SUMMARY: Inhibition of Mycobacterium tuberculosis PknA (M1 to A296 residues) expressed in Escherichia coli BL21 (DE3) pLysS cells using [T-33P]ATP as substrate after 120 mins in presence of GarA by liquid scintillation method
MEASURED ENDPOINT: Ki (nM)

[[record]]
smiles_notation = "N#CCc1ccc(-c2nc(Nc3cc(C4CC4)[nH]n3)c3cc(Cl)ccc3n2)cc1"
censoring_operator = ">"
readout_number = 4000

[[record]]
smiles_notation = "NS(=O)(=O)c1ccc(-c2ncc(F)c(Nc3cc(C4CC4)[nH]n3)n2)s1"
censoring_operator = "="
readout_number = 12

[[record]]
smiles_notation = "NS(=O)(=O)c1ccc(-c2ncc(Cl)c(Nc3cc(C4CC4)[nH]n3)n2)s1"
censoring_operator = "="
readout_number = 9


These entries and their values trace back to ChEMBL document CHEMBL4130590.
